target.under.test: human GLP1R (Homo sapiens)
Construct: expressed in transfected cells; host or cells: CHO cells (ATCC), transient transfection with pCMV-human GLP1R
Sequence (P43220 24-463): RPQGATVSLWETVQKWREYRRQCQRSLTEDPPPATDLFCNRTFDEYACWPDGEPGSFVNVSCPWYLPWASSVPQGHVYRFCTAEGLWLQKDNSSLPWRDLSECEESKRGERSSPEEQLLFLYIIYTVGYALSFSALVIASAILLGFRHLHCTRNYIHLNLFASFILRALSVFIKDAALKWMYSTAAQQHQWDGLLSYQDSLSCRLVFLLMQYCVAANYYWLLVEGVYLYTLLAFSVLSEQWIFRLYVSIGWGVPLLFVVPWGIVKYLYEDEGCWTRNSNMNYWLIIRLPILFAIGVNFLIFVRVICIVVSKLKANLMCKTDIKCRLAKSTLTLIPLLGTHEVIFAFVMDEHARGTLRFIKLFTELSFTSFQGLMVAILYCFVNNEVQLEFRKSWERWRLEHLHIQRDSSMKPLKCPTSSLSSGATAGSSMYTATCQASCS
experimental.protocol: Human GLP-1 receptor transfected cell assay (MRE/CRE-luciferase reporter gene, agonist activity)
Type: cell-based
conditions.used: 6 h; concentration 1 μM; read-out: Activity (agonist), percentage of the activity of the control
quantity.kind: activation at 1 µM

| compound | activation at 1 µM |
| --- | --- |
| CC1CCN(S(=O)(=O)NC(Cc2ccc(-c3noc(-c4ccc(NC(=O)OC(C)(C)C)cc4)n3)c(F)c2)C(=O)O)CC1 (centres unmarked) | 40 to 60% |
| CC1CCN(c2cccc(C(=O)NC(Cc3ccc(-c4noc(-c5ccc(NC(=O)OC(C)(C)C)cc5)n4)c(F)c3)C(=O)O)c2)CC1 (centres unmarked) | > 60% |
| Cc1ccc(-c2ccc(NC(=O)NC(Cc3ccc(-c4noc(-c5ccc(NC(=O)OC(C)(C)C)cc5)n4)c(F)c3)C(=O)O)nc2)cc1 (centres unmarked) | 40 to 60% |
| Cc1ccc(S(=O)(=O)NC(Cc2ccc(-c3noc(-c4ccc(NC(=O)OC(C)(C)C)cc4)n3)c(F)c2)C(=O)O)cc1Cl (centres unmarked) | 40 to 60% |

Answer with reported activation at 1 µM of CC(C)(C)OC(=O)Nc1ccc(-c2nc(-c3ccc(C[C@@H](NC(=O)c4cccc(-c5ccccc5F)c4)C(=O)O)cc3F)no2)cc1
40 to 60%

Answer with reported activation at 1 µM of Cc1ccc(-c2ccc(C(=O)NC(Cc3cc(F)cc(C#Cc4ccc(NC(=O)OC(C)(C)C)cc4)c3)C(=O)O)o2)cc1 (centres unmarked)
> 60%

Answer with reported activation at 1 µM of CC(C)(C)OC(=O)Nc1ccc(-c2nc(-c3ccc(C[C@@H](NC(=O)c4cccc(C#CC5CC5)c4)C(=O)O)cc3F)no2)cc1
20 to 40%

Answer with reported activation at 1 µM of CC(C)c1ccc(-c2ccc(C(=O)N[C@H](Cc3ccc(F)c(-c4noc(-c5ccc(NC(=O)OC(C)(C)C)cc5)n4)c3)C(=O)O)o2)cc1
20 to 40%

Answer with reported activation at 1 µM of Cc1ccc(-c2ccc(C(=O)N[C@H](Cc3ccc(-c4noc(-c5ccc(NC(=O)OC(C)(C)C)cc5)n4)cn3)C(=O)O)o2)cc1
40 to 60%

* * *

Each entry below lists one item and its recorded activation at 3 µM value.
target.under.test: human GLP1R (Homo sapiens)
Construct: expressed in transfected cells; host or cells: CHO cells (ATCC), transient transfection with pCMV-human GLP1R
experimental.protocol: Human GLP-1 receptor transfected cell assay (MRE/CRE-luciferase reporter gene, agonist activity)
Assay type: cell-based
conditions.used: 6 h; concentration 3 μM; read-out: Activity (agonist), percentage of the activity of the control

| compound | target.under.test | activation at 3 µM |
| --- | --- | --- |
| CC(C)(C)OC(=O)Nc1ccc(-c2nc(-c3ccc(CC(NC(=O)Nc4ccc(C#N)cc4)C(=O)O)cc3F)no2)cc1 (stereo not drawn) [Compound 4U] | human GLP1R (Homo sapiens) | 40 to 60% |

Answer with reported activation at 3 µM of CC(C)(C)OC(=O)Nc1ccc(-c2nc(-c3ccc(CC(NC(=O)c4cn(Cc5ccc(F)cc5)nn4)C(=O)O)cc3F)no2)cc1 (stereo not drawn) [Compound 3K]
20 to 40%

Answer with reported activation at 3 µM of Cc1ccc(-c2ccc(C(=O)NC(Cc3ccc(-c4noc(-c5ccc(NC(=O)OC(C)(C)C)cc5C)n4)c(F)c3)C(=O)O)o2)cc1 (stereo not drawn) [Compound 1R]
20 to 40%

Answer with reported activation at 3 µM of CC(C)(C)OC(=O)Nc1ccc(C#Cc2ccc(CC(NC(=O)c3cccc(-c4ccc(Cl)cc4)c3)C(=O)O)cc2F)cc1 (stereo not drawn) [Compound 4E]
20 to 40%

Answer with reported activation at 3 µM of Cc1csc(-c2cccc(C(=O)N[C@H](Cc3ccc(-c4noc(-c5ccc(NC(=O)OC(C)(C)C)cc5)n4)c(F)c3)C(=O)O)c2)c1 [Compound 6U]
40 to 60%

Answer with reported activation at 3 µM of CC(C)c1ccc(-c2cccc(C(=O)N[C@H](Cc3ccc(-c4noc(-c5ccc(NC(=O)OC(C)(C)C)cc5)n4)c(F)c3)C(=O)O)c2)cc1 [Compound 6D]
20 to 40%

Answer with reported activation at 3 µM of CC(C)(C)OC(=O)Nc1ccc(-c2nc(-c3ccc(CC(NC(=O)Nc4ccc(C(C)(C)C)cc4)C(=O)O)cc3F)no2)cc1 (stereo not drawn) [Compound 4V]
40 to 60%

Answer with reported activation at 3 µM of CC(C)(C)OC(=O)Nc1ccc(-c2nc(-c3ccc(CC(NC(=O)/C=C/c4ccc(Cl)c(C(F)(F)F)c4)C(=O)O)cc3F)no2)cc1 (stereo not drawn) [Compound 2B]
40 to 60%

Answer with reported activation at 3 µM of CC(C)(C)OC(=O)Nc1ccc(-c2nc(-c3ccc(CC(NC(=O)c4ccc(N5CCOCC5)cc4)C(=O)O)cc3F)no2)cc1 (stereo not drawn) [Compound 3V]
20 to 40%

Answer with reported activation at 3 µM of Cc1ccc(-c2ccc(C(=O)N[C@H](Cc3ccc(F)c(-c4noc(-c5ccc(NC(=O)OC(C)(C)C)cc5)n4)c3)C(=O)O)o2)cc1 [Compound 1E]
40 to 60%

Answer with reported activation at 3 µM of Cc1ccc(-c2cccc(C(=O)N[C@@H](Cc3ccc(-c4noc(-c5ccc(NC(=O)OC(C)(C)C)cc5)n4)c(F)c3)C(=O)O)c2)cc1 [Compound 8E]
> 60%

Answer with reported activation at 3 µM of Cc1ccc(-c2cccc(NC(=O)NC(Cc3ccc(-c4noc(-c5ccc(NC(=O)OC(C)(C)C)cc5)n4)c(F)c3)C(=O)O)c2)cc1 (stereo not drawn) [Compound 5A]
40 to 60%
